# Experimental target: T1, human ST2L extracellular domain with C-terminal His6 tag (human, UniProt Q01638 19-328)
# T1 construct: also called huST2L-ECD; ST2L-ECD
# T1 sequence: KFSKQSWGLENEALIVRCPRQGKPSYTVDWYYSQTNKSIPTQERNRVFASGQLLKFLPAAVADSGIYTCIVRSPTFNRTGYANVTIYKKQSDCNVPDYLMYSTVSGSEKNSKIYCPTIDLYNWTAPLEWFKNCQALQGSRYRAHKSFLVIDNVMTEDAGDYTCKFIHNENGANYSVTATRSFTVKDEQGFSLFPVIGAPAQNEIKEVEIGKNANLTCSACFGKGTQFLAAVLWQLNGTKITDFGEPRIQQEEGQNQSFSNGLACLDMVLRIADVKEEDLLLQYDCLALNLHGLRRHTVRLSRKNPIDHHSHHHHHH
# Protocol details: ProteOn SPR, mAb captured, ST2L-ECD in solution
Readout: koff
Remember to put the unit after the number in your answer.

Query block: Could you tell me which koff is on file for STLM201 (antibody, V domains shown, C2494 HFA mAb: VH STLH194 + VL STLL276 (L12)) VH: EVQLVQSGAEVKKPGATVKISCKVSAFNIKDDYMHWVQQAPGKGLEWMGRIDPAIGNTEYAEKFQGRVTITADTSTDTAYMELSSLRSEDTAVYYCATGDFYAMDYWGQGTLVTVSS VL: DIQMTQSPSTLSASVGDRVTITCITNTDIDDVIHWYQQKPGKAPKLLIYEGNTLRPGVPSRFSGSGSGTEFTLTISSLQPDDFATYYCLQSDNMLTFGQGTKLEIK ?
Result block: 0.000852 s⁻¹
